Would you kindly list PBM binding z-score for each of these sequences?
# Test system: RARb homodimer (NR concentration 270 nM)
# METHOD_SUMMARY: PBM binding z-score (relative to random genomic background probes); higher = stronger binding; sequences stand for … in GC…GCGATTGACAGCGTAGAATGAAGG
Give bare numbers.

Past entries and their recorded results:
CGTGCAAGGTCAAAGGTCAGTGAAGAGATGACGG ... 5.61
GATACAGGGTCAAGGCCGGAGTACGCGTATTGAT ... 3.43
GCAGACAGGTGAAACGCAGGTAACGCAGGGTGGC ... 0.284

State the recorded PBM binding z-score for every item in the following list.
1. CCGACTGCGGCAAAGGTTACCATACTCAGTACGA
2. CGAACTAGGTCATCCAGGACAGTGTATACATTGA
3. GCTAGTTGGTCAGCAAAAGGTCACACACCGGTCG

### Response
2.07
3.16
5.34

----------
# Test system: PPARg homodimer (NR concentration 180 nM)
# METHOD_SUMMARY: PBM binding z-score (relative to random genomic background probes); higher = stronger binding; sequences stand for … in GC…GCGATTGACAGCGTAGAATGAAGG
Would you kindly list PBM binding z-score for each of these sequences?
One number for each entry.

Field: example entries. Status: answers known.
GCGACCGGGGCAAAGCAGGTTACCATAAGGTTGG ... 0.243
CTAACTAGGTCAAAGGTCAAAGTCGAGCCAACCA ... 4.42

I have 3 sequences here; please give me PBM binding z-score for each one.
1. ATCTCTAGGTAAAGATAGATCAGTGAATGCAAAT
2. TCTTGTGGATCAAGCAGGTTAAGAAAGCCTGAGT
3. CCTTACGGGTCTCTGACAGGTTATAGCATTTGGA

### Response
-0.283
-0.187
0.678

----------
# Test system: PPARg:RXRa 90nM:30nM, anti-RXR (NR concentration 90 nM, RXRa partner concentration 30 nM)
# METHOD_SUMMARY: PBM binding z-score (relative to random genomic background probes); higher = stronger binding; sequences stand for … in GC…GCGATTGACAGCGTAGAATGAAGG
I'd appreciate it if you could supply PBM binding z-score values for the items below.

TGTCAAAGTTCAAAGGTAACATAAGTATCCACAC ... 7.34
AGAACGAGGGCACGCTGAGTTTATAGCAGAGTAG ... 1.43
CCTAGCACGCCAGGGTCACTCAAGCATTTCGCTT ... -0.137
CCAAGTTGGTCAAGGTCACACACGCTATAGGTAC ... 3.14

Quick request: PBM binding z-score for each listed item, please.
1. TCATATAGGTAAAAGGTGACAGTCGGTGTGGTAA
2. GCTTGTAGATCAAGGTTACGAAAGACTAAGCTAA

### Response
1: 9.66; 2: 1.13

----------
# Tested on: THRa homodimer (NR concentration 90 nM)
# METHOD_SUMMARY: PBM binding z-score (relative to random genomic background probes); higher = stronger binding; sequences stand for … in GC…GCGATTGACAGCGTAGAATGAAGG
Quick rule for you: PBM binding z-score at 0.4 or higher means Y, lower means N.

### Prompt Please tell me: is the sequence CCTAGGTGGTCAGGAGGTCACACACCGGATATGA at or over 0.4 in terms of PBM binding z-score?
### Response Y

### Prompt State whether the measured PBM binding z-score reaches 0.4, counting equality as reaching it, for CCTAGCAGGCCAGTGTCACTCAAGCATTTCGCTT
### Response N

### Prompt Please indicate if the recorded PBM binding z-score for CCTCGGAGGACAACAGGAGGTCAGAGATGCCAGA meets or exceeds 0.4.
### Response Y

### Prompt Record ACTAGCAGGCCAAGTTTGGGGCACTCAAACAAAG ; criterion: PBM binding z-score no lower than 0.4. Met?
### Response N

### Prompt Please tell me: is the sequence TATACAGGGTCAACGGCCAGAGTACGAATGTCGA at or over 0.4 in terms of PBM binding z-score?
### Response Y
